Cited source for all entries: patent US12077483B2

protocolSummary: LNP average particle size and polydispersity by dynamic light scattering
Type: physicochemical
conditionDetails: LNP with the compound as amine lipid; Expt. 10; composition ratio (mol %) 50/9/38/3 for Cmpnd 49, 50/10/38.5/1.5 for the others

| molecule | unitName | Z-Ave Size (nm) |
| --- | --- | --- |
| CCCCC/C=C\C/C=C\CCCCCCCC(=O)OCC(COC(=O)CCCCCCC/C=C\C/C=C\CCCCC)OC(=O)CCC(CCCCCCCC)OC(=O)OCCCCN(CC)CC (stereo not shown) | nm | 105 |
| CCCCC/C=C\C/C=C\CCCCCCCC(=O)OCC(COC(=O)CCCCCCC/C=C\C/C=C\CCCCC)OC(=O)CCC(CCCCCCCC)OC(=O)NCCN(C)C (stereo not shown) | nm | 97 |
| CCCCC/C=C\C/C=C\CCCCCCCC(=O)OCC(COC(=O)CCCCCCC/C=C\C/C=C\CCCCC)OC(=O)CCCC(CCCCCCCC)OC(=O)NCCN(C)CC (stereo not shown) | nm | 92 |
| CCCCC/C=C\C/C=C\CCCCCCCC(=O)OCC(COC(=O)CCCCCCC/C=C\C/C=C\CCCCC)OC(=O)CCC(CCCCCCCC)OC(=O)NCCN(CC)CC (stereo not shown) | nm | 89 |

###

protocolSummary: Tolerability in rats: liver enzyme panel 24 hours post dose
Format: in vivo, rat
conditionDetails: Sprague Dawley female rats, 6 mg/kg, serum
Documented GGT (U/L) across a set of molecules
assayMetric: GGT (U/L)

| molecule | unitName | recordedResult |
| --- | --- | --- |
| CCCCC/C=C\C/C=C\CCCCCCCC(=O)OCC(COC(=O)CCCCCCC/C=C\C/C=C\CCCCC)OC(=O)CCC(CCCCCC)OC(=O)OCCCN1CCCC1 (stereo not shown) | U/L | 2.4 |
| CCCCC/C=C\C/C=C\CCCCCCCC(=O)OCC(COC(=O)CCCCCCC/C=C\C/C=C\CCCCC)OC(=O)CCC(CCCCCCCC)OC(=O)NCCN(C)CC (stereo not shown) | U/L | 3.4 |
| CCCCC/C=C\C/C=C\CCCCCCCC(=O)OCC(COC(=O)CCCCCCC/C=C\C/C=C\CCCCC)OC(=O)CCC(CCCCCC)OC(=O)NCCN1CCCC1 (racemic) | U/L | 11 |
| CCCCC/C=C\C/C=C\CCCCCCCC(=O)OCC(COC(=O)CCC(OCCCCCCCC)OCCCCCCCC)COC(=O)OCCCN(CC)CC (stereo not shown) [Compound 49, reference compound] | U/L | 2 |

###

protocolSummary: RNA encapsulation efficiency of LNP (Ribogreen fluorescence assay)
Assay type: physicochemical
conditionDetails: LNP with the compound as amine lipid; Expt. 2; composition ratio (mol %) 50/9/39.5/3 for Cmpnd 49, 50/9/39.5/1.5 for the others
assayMetric: Encapsulation (%)

| compound | assayMetric | unitName | recordedResult |
| --- | --- | --- | --- |
| CCCCC/C=C\C/C=C\CCCCCCCC(=O)OCC(COC(=O)CCCCCCC/C=C\C/C=C\CCCCC)OC(=O)CCC(CCCC)OC(=O)NCC1CCCN1C (centres unmarked) | Encapsulation (%) | % | 99 |
| CCCCC/C=C\C/C=C\CCCCCCCC(=O)OCC(COC(=O)CCCCCCC/C=C\C/C=C\CCCCC)OC(=O)CCC(CCCCCC)OC(=O)OCCCN1CCCC1 (centres unmarked) | Encapsulation (%) | % | 99 |
| CCCCC/C=C\C/C=C\CCCCCCCC(=O)OCC(COC(=O)CCCCCCC/C=C\C/C=C\CCCCC)OC(=O)CCC(CCCC)OC(=O)OCCCN1CCCC1 (centres unmarked) | Encapsulation (%) | % | 99 |
| CCCCC/C=C\C/C=C\CCCCCCCC(=O)OCC(COC(=O)CCCCCCC/C=C\C/C=C\CCCCC)OC(=O)CCC(CCCCCC)OC(=O)NCC1CCCN1C (centres unmarked) | Encapsulation (%) | % | 99 |
| CCCCC/C=C\C/C=C\CCCCCCCC(=O)OCC(COC(=O)CCC(OCCCCCCCC)OCCCCCCCC)COC(=O)OCCCN(CC)CC (centres unmarked) [Compound 49, reference compound] | Encapsulation (%) | % | 98 |
